# Tested on: Malme-3M
# EXPERIMENT_SUMMARY: NCI tumour cell line growth inhibition, 48 h
The source made the active and inactive calls. No stated cut-off is given here; in the data, active = GI50 up to about 1.1 µM and inactive = higher.
Kindly state GI50 for each of the entries shown.

(Q) # GI50 lookup, item CCC(=O)N1C(=S)SC[C@H]1C(=O)OC
(A) > 100 µM (inactive)

(Q) Subsequent entry: CCNc1nnc(-c2ccccc2Nc2ccccc2-c2nnc(NCC)s2)s1
(A) 19.2 µM (inactive)

(Q) Subsequent entry: CC1=C2C(c3ccccc3)(c3ccccc3)C3C=CC2(C=N3)N(C(=O)NC2CCCCC2)C1=O (stereo unspecified)
(A) 17.4 µM (inactive)

(Q) Subsequent entry: CSC1NNC2(C(=O)N1)c1ccccc1-c1ccccc12 (stereo unspecified)
(A) > 10 µM (inactive)

(Q) Subsequent entry: O=C1/C(=C/c2ccc(Br)cc2)CCC/C1=C\c1ccc(Br)cc1
(A) 19.6 µM (inactive)

(Q) Subsequent entry: CN1CCC(=O)/C(=C/c2ccccc2)C1
(A) 19.5 µM (inactive)

(Q) Subsequent entry: COc1cc(C2c3cc4c(cc3[C@@H](Nc3ccc(N)cc3)C3COC(=O)[C@H]23)OCO4)cc(OC)c1O (stereo partly specified)
(A) 2.13 µM (inactive)

(Q) Subsequent entry: O=C(O)COc1ccc(C(=O)/C(SS/C(C(=O)c2ccc(OCC(=O)O)c(Cl)c2Cl)=C2\C=C(c3ccc(Cl)cc3)SS2)=C2/C=C(c3ccc(Cl)cc3)SS2)c(Cl)c1Cl
(A) 33.7 µM (inactive)

(Q) Subsequent entry: O=C1NC(=O)[C@H]2C3C=CC([C@@H]12)[C@@H]1C(=O)NC(=O)[C@H]31
(A) > 100 µM (inactive)

(Q) Subsequent entry: CCN(C(=O)N[C@@H](Cc1ccccc1)C(=O)N[C@@H](CC(C)C)C(=O)NC)c1ccccc1
(A) > 100 µM (inactive)

(Q) Subsequent entry: CC(=O)N1c2ccccc2C2=NN(C)C(=N)SC21 (stereo unspecified)
(A) 68.4 µM (inactive)

----------
# Tested on: KM12
# EXPERIMENT_SUMMARY: NCI tumour cell line growth inhibition, 48 h
Active and inactive are the calls of the source. Cut-off read from the data, not from the text of the source: active = GI50 up to about 1.1 µM and inactive = higher.
MEASURED_PROPERTY: GI50

(Q) Report GI50 for O=C(/C=C/c1ccccc1O)c1cccc2ccccc12 tested on KM12.
(A) 40.3 µM (inactive)

(Q) Subsequent entry: Cn1cnc2c(NCc3ccccc3)nc(NCCO)nc21
(A) 35 µM (inactive)

(Q) Subsequent entry: CSC1NNC2(C(=O)N1)c1ccccc1-c1ccccc12 (configuration not stated)
(A) > 10 µM (inactive)

(Q) Subsequent entry: O=C1/C(=C/c2cccc3ccccc23)CCc2ccc([N+](=O)[O-])cc21
(A) 6.32 µM (inactive)

(Q) Subsequent entry: COc1cc2cccc(N)c2cc1OC
(A) > 100 µM (inactive)

(Q) Subsequent entry: O=C1C=CC(=O)C2C1Cc1ccccc1C2c1ccccc1 (configuration not stated)
(A) 51.9 µM (inactive)

(Q) Subsequent entry: C(=C\c1ccc2ccccc2c1Nc1ccccc1)/c1ccccc1
(A) 51.3 µM (inactive)

(Q) Subsequent entry: Oc1cc(-c2ccc3ccccc3c2)nc2ncc(Cl)cc12
(A) 3.79 µM (inactive)

(Q) Subsequent entry: NCCCCCCNCc1cccc2ccccc12
(A) 99.8 µM (inactive)

(Q) Subsequent entry: COC1CC(N)C(O)C(C)O1 (configuration not stated)
(A) > 100 µM (inactive)

(Q) Subsequent entry: O=C1OC(c2ccc([N+](=O)[O-])cc2)=N/C1=C\c1ccc(O)cc1
(A) > 100 µM (inactive)

(Q) Subsequent entry: Cc1ccc(/N=C2\SC(=NN(C)C)S\C2=N/c2ccc(C)cc2)cc1
(A) > 100 µM (inactive)

(Q) Subsequent entry: CCCCNCCCNCCCNC(=O)c1csc(-c2csc(CCNC(=O)C(NC(=O)C(C)C(O)C(C)NC(=O)C(NC(=O)c3nc(C(CC(N)=O)NCC(N)C(N)=O)nc(N)c3C)C(OC3OC(CO)C(O)C(O)C3OC3OC(CO)C(O)C(OC(N)=O)C3O)c3c[nH]cn3)C(C)O)n2)n1 (configuration not stated)
(A) 8.67 µM (inactive)

(Q) Subsequent entry: CC(=O)OC1CCC2(C)C(CCC3C2CC(=O)C2(C)C3CC(N3CC3)C2C(C)=O)C1 (configuration not stated)
(A) 17.1 µM (inactive)

(Q) Subsequent entry: O=C(N/C(=C\NC1=NCCS1)C(=O)N1CSC[C@@H]1C(=O)O)c1ccccc1
(A) > 100 µM (inactive)

(Q) Subsequent entry: CN(C)CCNC(=O)c1cccc2ncc(-c3ccccc3)nc12
(A) 11.8 µM (inactive)

(Q) Subsequent entry: CC(=O)OC12c3ccccc3-c3ccccc3C1C(C(=O)O)C2C(=O)O (configuration not stated)
(A) > 10 µM (inactive)

----------
# Test system: RPMI-8226
# EXPERIMENT_SUMMARY: NCI tumour cell line growth inhibition, 48 h
Active and inactive are the calls of the source. Rule as the data show it: active = GI50 up to about 1.1 µM and inactive = higher. Peptide text beside a SMILES is read from it. * marks the point of attachment. OSu = O=C1CCC(=O)N1O*
Parameter call: string, one of active, inactive

(Q) I would be grateful if you could indicate the recorded call for COc1cc2c(cc1OC)C(C(=O)O)C(c1ccccc1)N(C)C2=O (stereo not given) .
(A) inactive

(Q) Subsequent entry: CCCCCCCCCCCCCCCCCCOCC(O)COP(=O)(O)OCC1OC(n2ccc(N)nc2=O)C(O)C1O (stereo not given)
(A) inactive

(Q) Subsequent entry: C=CC(OC(C)=O)c1ccc(OC(=O)C(C)C)c(OC)c1 (stereo not given)
(A) inactive

(Q) Subsequent entry: CCOC(=O)NC(Nc1ncccn1)(C(F)(F)F)C(F)(F)F
(A) inactive

(Q) Subsequent entry: COc1ccc(NC(C)=O)cc1N1C(=O)/C(=C\c2cc(OC)c(OC)c(OC)c2)SC1c1ccccc1 (stereo not given)
(A) inactive

(Q) Subsequent entry: COc1cc(/C=C/C(=O)Oc2ccccc2)ccc1C(=O)O/C=C/c1ccccc1
(A) inactive

(Q) Subsequent entry: CC1(C)C(c2ccccc2)C12CCC1(C2=O)C(c2ccccc2)C1(C)C (stereo not given)
(A) inactive

(Q) Subsequent entry: CCCCOc1c(C(=O)O)cc(Br)cc1C(=O)O
(A) inactive

(Q) Subsequent entry: C=C(C)C1=CCC[C@]2(C1)N=C(OC)[C@@H](C(C)C)N=C2OC
(A) inactive

(Q) Subsequent entry: CCOC(=O)N1C(=S)C(C(=O)OC)(C(=O)OC)N=C1C
(A) inactive

(Q) Subsequent entry: c1ccc(CCN2CCc3[nH]c4ccccc4c3C2)cc1
(A) inactive

(Q) Subsequent entry: O=[N+]([O-])C(=C(N1CCCCC1)N1CCCCC1)/C(Cl)=C(\Cl)[N+](=O)[O-]
(A) inactive

(Q) Subsequent entry: CC(C)c1ccc(/C=C2\CSCC3=C2N=C2SCC(=O)N2C3c2ccc(C(C)C)cc2)cc1 (stereo not given)
(A) inactive

(Q) Subsequent entry: Cc1cnc2nc(-c3cccc4ccccc34)cc(O)c2c1
(A) active

(Q) Subsequent entry: O=C(O)C1CCCCC1C(=O)Nc1nc2ccccc2[nH]1 (stereo not given)
(A) inactive

(Q) Subsequent entry: COC1OC(COC(=O)NCCCCC(=O)C(F)(F)F)C(O)C(O)C1O (stereo not given)
(A) inactive

(Q) Subsequent entry: O=C1C=CC(=O)C2C1Cc1ccccc1C2c1ccccc1 (stereo not given)
(A) inactive

(Q) Subsequent entry: C[n+]1c(-c2ccc(/C=N\Nc3ccnc(N/N=C/c4ccc(-c5cn6ccsc6[n+]5C)cc4)n3)cc2)cn2ccsc21
(A) inactive

(Q) Subsequent entry: NCCCCC(NC(=O)C(N)Cc1ccc(O)cc1)C(=O)NC(Cc1ccc(O)cc1)C(=O)NC(CCCCN)C(=O)ON1C(=O)CCC1=O (stereo not given) (H-YKYK-OSu; configuration not given here)
(A) inactive

(Q) Subsequent entry: O=S(=O)(CCn1c(Sc2ccccc2)c(Sc2ccccc2)c2ccccc21)c1ccccc1
(A) inactive

(Q) Subsequent entry: COC1C(CO)OC(n2c3c(Cl)cccc3c3c4c(c5c6cccc(Cl)c6[nH]c5c32)C(=O)NC4=O)C(O)C1O (stereo not given)
(A) active

(Q) Subsequent entry: Cc1cc(C)nc(NS(=O)(=O)c2ccc(NC(=O)c3cccc4c(N)c5ccccc5nc34)cc2)n1
(A) inactive

(Q) Subsequent entry: O=c1[nH]cnc(NC2C=C(CO)C(O)C2O)c1[N+](=O)[O-] (stereo not given)
(A) inactive

(Q) Subsequent entry: N=C(N)SCc1cn2ccccc2n1
(A) inactive

(Q) Subsequent entry: O=[N+]([O-])c1ccc2c(c1)c1nn2CCCCOc2nn(c3ccc([N+](=O)[O-])cc23)CCCCO1
(A) inactive

----------
# Test system: RXF 393
# EXPERIMENT_SUMMARY: NCI tumour cell line growth inhibition, 48 h
The source made the active and inactive calls. Cut-off read from the data, not from the text of the source: active = GI50 up to about 1.1 µM and inactive = higher.
Parameter call: string, one of true (1) (active), false (0) (inactive)

(Q) I would be grateful if you could indicate the recorded call for CC1=Nc2c(N)nc(N)nc2N(C)C1 .
(A) false (0)

(Q) Subsequent entry: O=C1c2cccc3cc([N+](=O)[O-])cc(c23)C(=O)N1NC1=NCCN1
(A) false (0)

(Q) Subsequent entry: CC(=O)Oc1ccc2c(c1)Oc1cc(C(C)=O)ccc1C21OC(=O)c2ccccc21 (configuration not stated)
(A) false (0)

(Q) Subsequent entry: Cc1ccc(C2SC(=N)Nc3c2c(C)nn3C(=O)c2ccccc2O)cc1 (configuration not stated)
(A) false (0)

(Q) Subsequent entry: COc1cc(C2c3cc4c(cc3[C@@H](Nc3ccc(N)cc3)C3COC(=O)[C@H]23)OCO4)cc(OC)c1O (some centres not stated)
(A) false (0)

(Q) Subsequent entry: O=P(O)(O)C(N=C(Nc1ccccc1)Nc1ccccc1)P(=O)(O)O
(A) false (0)

(Q) Subsequent entry: CC(=O)Nc1ccc(NC(=O)c2c(Cl)c(Cl)c(Cl)c(Cl)c2-c2nc3ccccc3[nH]2)cc1
(A) false (0)

(Q) Subsequent entry: Clc1ccccc1CN1COc2c(ccc3cccnc23)C1
(A) false (0)

(Q) Subsequent entry: CCCCOc1c(C(=O)O)cc(Br)cc1C(=O)O
(A) false (0)

(Q) Subsequent entry: CCNc1nnc(-c2ccccc2Nc2ccccc2-c2nnc(NCC)s2)s1
(A) false (0)

(Q) Subsequent entry: c1ccc([P+](c2ccccc2)(c2ccccc2)c2ccc([P+](c3ccccc3)(c3ccccc3)c3ccccc3)c3ccccc23)cc1
(A) false (0)

(Q) Subsequent entry: CC(C)N(C(=O)c1ccc(NCc2cc(O)ccc2O)cc1)C(C)C
(A) false (0)

(Q) Subsequent entry: Cc1ccc(SCC(=O)C2=C(O)CCCC2=O)cc1
(A) false (0)

(Q) Subsequent entry: CN(C)CCCNC(=O)c1cc(NC(=O)c2cc(NC(=O)c3cc(NC(=O)CCCn4ccc(CO)c4CO)cn3C)cn2C)cn1C
(A) false (0)

(Q) Subsequent entry: CC1(C)C(c2ccccc2)C12CCC1(C2=O)C(c2ccccc2)C1(C)C (configuration not stated)
(A) false (0)

(Q) Subsequent entry: O=C1CN(/N=C/c2ccc(-c3ccc(F)cc3)o2)C(=O)N1
(A) false (0)

(Q) Subsequent entry: COC(=O)c1ccc(O)c2nc3c(C=O)c(O)cc(O)c3nc12
(A) false (0)

(Q) Subsequent entry: CC1(C)CCC2=C(O1)/C(=N\Nc1ccc(F)cc1)c1ccccc1C2=O
(A) false (0)

(Q) Subsequent entry: CCOC(=O)N1C(=S)C(C(=O)OC)(C(=O)OC)N=C1C
(A) false (0)

(Q) Subsequent entry: CC(C)NC(=O)OCc1c(COC(=O)NC(C)C)c(-c2ccc(Cl)c(Cl)c2)n2c1CCC2
(A) false (0)

(Q) Subsequent entry: O=C1c2cccc(O)c2C(=O)c2c(O)cc(CO)cc21
(A) false (0)

(Q) Subsequent entry: CC1(C=O)C(=O)CCC2(C)C3CC(=O)OC3CCC12 (configuration not stated)
(A) false (0)

(Q) Subsequent entry: O=C1/C(=C/c2cccc3ccccc23)CCc2ccc([N+](=O)[O-])cc21
(A) false (0)

(Q) Subsequent entry: Cn1cccc(C(=O)c2ccccc2)c1=O
(A) false (0)

(Q) Subsequent entry: COC1CC(C)C(OC)C2=CC(=O)C=C(NC(=O)/C(C)=C/C=C\C(C)C(OC(N)=O)/C(C)=C\C(C)C1OC)C2=O (configuration not stated)
(A) true (1)

(Q) Subsequent entry: C=C(C)CNC(=S)N(N)c1ccc2ccccc2c1
(A) false (0)

(Q) Subsequent entry: Cc1nc2ccc(S(=O)(=O)O)cc2c(=O)n1-c1ccc(C(=O)NN2C(=O)C(Cl)C2c2cccs2)cc1 (configuration not stated)
(A) false (0)
